The measurements presented in this section are drawn from patent US11597724B2.

system: Hordeum murinum; assay: Post-emergence herbicidal activity against HORMU; type: in vivo; details: Hordeum murinum, 504 h, dosage 320 g/ha
Measurement Kind: pest or weed control at 320 g/ha (%)
Just the number please, in %, no unit attached.

{"Compound": "CC(C)OC(=O)[C@H]1C[C@@H](NC(=O)C2(C)CC(c3cccc(F)c3)=NO2)CO1 (mixture of isomers)", "Target Or System": "Hordeum murinum", "Units Symbol": "%", "pest or weed control at 320 g/ha": 90}
{"Compound": "C=C[C@]1(C(=O)N[C@H]2CO[C@@H](C(=O)OC)C2)CC(c2cc(F)cc(F)c2)=NO1 (single isomer, unassigned) [I-11]", "Target Or System": "Hordeum murinum", "Units Symbol": "%", "pest or weed control at 320 g/ha": 100}
{"Compound": "C=C[C@]1(C(=O)N[C@H]2CO[C@@H](C(=O)OCC)C2)CC(c2cc(F)cc(F)c2)=NO1 (mixture of isomers)", "Target Or System": "Hordeum murinum", "Units Symbol": "%", "pest or weed control at 320 g/ha": 100}
{"Compound": "C=C[C@]1(C(=O)N[C@H]2CO[C@@H](C(=O)OC(C)C)C2)CC(c2cc(F)cc(F)c2)=NO1 (mixture of isomers)", "Target Or System": "Hordeum murinum", "Units Symbol": "%", "pest or weed control at 320 g/ha": 90}
{"Compound": "CC(C)(C)OC(=O)[C@H]1C[C@@H](NC(=O)C2(C)CC(c3cccc(F)c3)=NO2)CO1 (mixture of isomers)", "Target Or System": "Hordeum murinum", "Units Symbol": "%", "pest or weed control at 320 g/ha": 90}

Entry under test: COC(=O)[C@@]1(OC)C[C@@H](NC(=O)C2(C)CC(c3cccc(F)c3)=NO2)CO1 (stereo partly shown) . Its pest or weed control at 320 g/ha was 100

The reported pest or weed control at 320 g/ha of the compound C=C[C@]1(C(=O)N[C@H]2CO[C@@H](C(=O)OCc3ccccc3)C2)CC(c2cc(F)cc(F)c2)=NO1 (mixture of isomers) was 80
